B1: Segment polarity protein dishevelled homolog DVL-3, residues 2 to 81; numbered along this chain, Q92997 (parent)
chain: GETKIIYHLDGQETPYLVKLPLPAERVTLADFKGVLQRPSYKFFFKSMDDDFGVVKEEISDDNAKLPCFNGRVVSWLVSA

- Variants of: B1
- assay: abundance fitness (aPCA) (normalised: wild type 0, dead -1); higher = more abundant; growth selection in yeast, the domain comes from the species named
- measurementContext: Homo sapiens
Label scheme for abundance fitness: lower than -0.6 is false, -0.6 and above is true.

Solved entries:
{"columns": ["variantDescriptor", "qualitativeLabel"],
 "data": [
  ["W76H", "false"],
  ["V35K", "true"],
  ["K46D", "true"],
  ["K19I", "true"],
  ["V73M", "false"],
  ["I59R", "false"],
  ["L77R", "false"],
  ["W76F", "true"]
]}

Q) Entry `V55W` : is its abundance fitness no less than -0.6?
A) true

Q) Determine whether measured abundance fitness meets or exceeds -0.6 for `R26T`
A) true

Q) Could you verify whether the entry `V54K` shows abundance fitness of no less than -0.6?
A) false

Q) Could you please find out whether `V35F` has abundance fitness that meets -0.6 or exceeds it?
A) true

Q) Does abundance fitness meet or surpass -0.6 for `A24T` ?
A) true

Q) Entry `V55A` : is its abundance fitness no less than -0.6?
A) true

Q) Is the recorded value of abundance fitness equal to or greater than -0.6 for this variant? `K33P`
A) false

Q) Is abundance fitness at least -0.6? Consider `E25L`
A) false

Q) Threshold query (abundance fitness >= -0.6) on `N63E`
A) true

Q) Exam item: decide whether the reported abundance fitness for `D61I` is at least -0.6.
A) true

The values you see were collected from the Human Domainome abundance scans (Beltran et al. 2025).
